system: E57 (patient-derived glioblastoma stem cells of mesenchymal subtype); assay: phenotypic distance (Euclidean, principal components) from DMSO controls (arbitrary units); higher = stronger morphological change; conditions: 3000 nM; exposure time: 72 h
Structures can show the parent of a compound that is named as a salt.
Parameter threshold = 2. Response is true (1) when phenotypic distance meets or exceeds it, else false (0).

Worked examples, 5 compounds total:
{"columns": ["compound", "assigned-label"],
 "data": [
  ["Cc1[nH]nc(C(F)(F)F)c1Cc1sc2c(c1C(=O)N1C[C@](C)(O)CO1)c(=O)n(C)c(=O)n2C(C)C [AZD3965]", "false (0)"],
  ["CC(=O)OC[C@H]1O[C@@H]([S-])[C@H](OC(C)=O)[C@@H](OC(C)=O)[C@@H]1OC(C)=O.CCP(CC)CC.[Au+] [Auranofin]", "true (1)"],
  ["Nc1ccn([C@@H]2O[C@H](CO)[C@@H](O)C2(F)F)c(=O)n1 [Gemcitabine HCl]", "true (1)"],
  ["NC(=O)c1ccccc1 [Benzamide]", "false (0)"],
  ["C#C[C@]1(O)CC[C@H]2[C@@H]3CCc4cc(OC5CCCC5)ccc4[C@H]3CC[C@@]21C [Quinestrol]", "true (1)"]
]}

Inquiry: Item COc1cccc2c1C(=O)c1c(O)c3c(c(O)c1C2=O)C[C@@](O)(C(=O)CO)C[C@@H]3O[C@H]1C[C@H](N)[C@H](O)[C@H](C)O1 [Doxorubicin hydrochloride] with phenotypic distance of 2 or above?
Reply text: true (1)

====

tested on: E28 (patient-derived glioblastoma stem cells of classical subtype); experiment: phenotypic distance (Euclidean, principal components) from DMSO controls (arbitrary units); higher = stronger morphological change; conditions: 111.1 nM; exposure time: 72 h
Where a name gives a salt, the structure may show the parent alone.
parameter-measured: phenotypic distance
Kindly provide the number alone.

CN[C@@H]1[C@@H](O)[C@@H](O[C@@H]2[C@@H](O)[C@H](O[C@H]3OC(CN)=CC[C@H]3N)[C@@H](N)C[C@H]2N)OC[C@]1(C)O [Sisomicin sulfate] yielded phenotypic distance of 0.454

COc1cc(/C=C/C(=O)N2CCC=CC2=O)cc(OC)c1OC [Piperlongumine] yielded phenotypic distance of 0.848

Cc1ncc(CO)c(CO)c1O [Pyridoxine hydrochloride] yielded phenotypic distance of 0.622

COc1ccc2[nH]c([S+]([O-])Cc3ncc(C)c(OC)c3C)nc2c1 (centres undefined) [Omeprazole] yielded phenotypic distance of 0.895

====

tested on: E31 (patient-derived glioblastoma stem cells of proneural subtype); assay: surviving fraction (nuclei count normalised to DMSO); higher = more cells surviving (less toxic); conditions: 37 nM; exposure time: 72 h
Structures can show the parent of a compound that is named as a salt.
Property: surviving fraction; scope: individual compounds
Kindly provide the number alone.

Previously resolved entries follow.
{"columns": ["compound", "surviving fraction"],
 "data": [
  ["CC(C)C[C@H](NC(=O)CNC(=O)c1cc(Cl)ccc1Cl)B(O)O [Ixazomib]", 0.0335],
  ["CC(C)C[C@H]1C(=O)N2CCC[C@H]2[C@]2(O)O[C@](NC(=O)[C@@H]3C=C4c5cccc6[nH]c(Br)c(c56)C[C@H]4N(C)C3)(C(C)C)C(=O)N12 [Bromocryptine mesylate]", 0.944],
  ["COc1ccc(/C=C\\c2cc(OC)c(OC)c(OC)c2)cc1OP(=O)(O)O [Fosbretabulin Disodium]", 0.765],
  ["CN(C)CCN(Cc1ccc(Cl)cc1)c1ccccn1 [Chloropyramine hydrochloride]", 0.853],
  ["Nc1ccn([C@@H]2O[C@H](CO)[C@@H](O)C2(F)F)c(=O)n1 [Gemcitabine HCl]", 0.161]
]}

Please turn your attention to the following entry.
Field surviving fraction (E31), entry CN1[C@@H]2CC[C@H]1CC(OC(=O)c1c[nH]c3ccccc13)C2 (stereo partly specified) [3-Tropanyl-indole-3-carboxylate hydrochloride] : 0.905

====

system: E21 (patient-derived glioblastoma stem cells of mesenchymal subtype); experiment: surviving fraction (nuclei count normalised to DMSO); higher = more cells surviving (less toxic); settings: 3000 nM; exposure time: 72 h
Property: surviving fraction; scope: individual compounds
Kindly provide the number alone.

{"columns": ["compound", "surviving fraction"],
 "data": [
  ["NCCNc1ccc(NCCN)c2c1C(=O)c1ccncc1C2=O [Pixantrone dimaleate]", 0.364]
]}

C[C@]12CC[C@H](O)C[C@H]1CC[C@@H]1[C@@H]2C[C@@H](O)[C@]2(C)[C@@H](C3=CC(=O)OC3)CC[C@]12O yielded surviving fraction of 0.331

====

system: E28; assay: phenotypic distance (Euclidean, principal components) from DMSO controls (arbitrary units); higher = stronger morphological change; conditions: 37 nM; exposure time: 72 h
Where a name gives a salt, the structure may show the parent alone.
Property: phenotypic distance; scope: individual molecules
Kindly provide the number alone.

Previously resolved entries follow.
{"columns": ["molecule", "system-name", "phenotypic distance"],
 "data": [
  ["CC1=C(/C=C/C(C)=C/C=C/C(C)=C/C(=O)Nc2ccc(O)cc2)C(C)(C)CCC1 [Retinoic acid p-hydroxyanilide]", "E28", 0.511],
  ["C[C@H](Cc1cc2c(c(C(N)=O)c1)N(CCCO)CC2)NCCOc1ccccc1OCC(F)(F)F [Silodosin]", "E28", 0.634],
  ["Cc1ncc(CO)c(CO)c1O [Pyridoxine hydrochloride]", "E28", 0.765],
  ["Cc1cc(/C=C/c2ccc3cc(N(C)C)ccc3[n+]2C)c(C)n1-c1ccccc1 [Pyrvinium pamoate]", "E28", 2.93],
  ["NCCNc1ccc(NCCN)c2c1C(=O)c1ccncc1C2=O [Pixantrone dimaleate]", "E28", 2.43]
]}

CC(C)C[C@H](NC(=O)CNC(=O)c1cc(Cl)ccc1Cl)B(O)O [Ixazomib] yielded phenotypic distance of 4.89

O=C1CC[C@@H](C(=O)N2CSC[C@H]2C(=O)O)N1 [Pidotimod] yielded phenotypic distance of 0.401

Clc1ccc(COC(Cn2ccnc2)c2ccc(Cl)cc2Cl)cc1 (stereo not drawn) [Econazole nitrate] yielded phenotypic distance of 0.504

COc1ccc2[nH]c([S+]([O-])Cc3ncc(C)c(OC)c3C)nc2c1 (stereo not drawn) [Omeprazole] yielded phenotypic distance of 0.667

CCOC(=O)OC(C)OC(=O)[C@@H]1N2C(=O)[C@@H](NC(=O)[C@H](N)c3ccccc3)[C@H]2SC1(C)C (stereo partly drawn) [Bacampicillin hydrochloride] yielded phenotypic distance of 1.1

c1ccc2c(c1)[I+]c1ccccc1-2 [Diphenyleneiodonium chloride] yielded phenotypic distance of 0.781

COc1ccc([C@@H]2CC(=O)c3c(O)cc(O[C@@H]4O[C@H](CO[C@@H]5O[C@@H](C)[C@H](O)[C@@H](O)[C@H]5O)[C@@H](O)[C@H](O)[C@H]4O)cc3O2)cc1O [Hesperidin] yielded phenotypic distance of 0.783

CCn1c(-c2nonc2N)nc2cnc(Oc3cccc(NC(=O)c4ccc(OCCN5CCOCC5)cc4)c3)cc21 yielded phenotypic distance of 2.16

Cc1c(-c2ccc(-c3ccccc3F)cc2)nc2ccc(F)cc2c1C(=O)O [Brequinar sodium salt hydrate] yielded phenotypic distance of 0.823

COc1cc(N)c(Cl)cc1C(=O)NC1CCN(CCCOc2ccc(F)cc2)CC1OC (stereo not drawn) [Cisapride] yielded phenotypic distance of 0.923

CC(C)NCC(O)c1ccc(O)c(O)c1 (stereo not drawn) [Isoproterenol hydrochloride] yielded phenotypic distance of 0.577

Cc1ccc(C(=O)Nc2ccc(CN3CCN(C)CC3)c(C(F)(F)F)c2)cc1C#Cc1cnc2cccnn12 [Ponatinib] yielded phenotypic distance of 1.3

C[C@H]1Oc2cc(cnc2N)-c2c(nn(C)c2C#N)CN(C)C(=O)c2ccc(F)cc21 [Lorlatinib] yielded phenotypic distance of 1.27

C[C@@H]1CN([C@H]2CC[C@](C#N)(c3ccc(F)cc3)CC2)CC[C@]1(C(=O)O)c1ccccc1 [Levocabastine hydrochloride] yielded phenotypic distance of 0.863

====

Property: phenotypic distance; scope: individual compounds
tested on: E13 (patient-derived glioblastoma stem cells of classical subtype); test: phenotypic distance (Euclidean, principal components) from DMSO controls (arbitrary units); higher = stronger morphological change; settings: 4.1 nM; exposure time: 72 h
Structures can show the parent of a compound that is named as a salt.
Kindly provide the number alone.

{"columns": ["compound", "phenotypic distance"],
 "data": [
  ["COc1cc2c(c(OC)c1OC)-c1ccc(OC)c(=O)cc1[C@@H](NC(C)=O)CC2", 5.49]
]}

COc1cc([C@@H]2c3cc4c(cc3[C@@H](O[C@@H]3O[C@@H]5CO[C@@H](c6cccs6)O[C@H]5[C@H](O)[C@H]3O)[C@H]3COC(=O)[C@H]23)OCO4)cc(OC)c1O [Teniposide] yielded phenotypic distance of 1.43

COc1cccc2c(NCc3ccccc3)nc(-n3c(N)nc4ccccc43)nc12 yielded phenotypic distance of 0.694

CC[C@H]1CN2CCc3cc(OC)c(OC)cc3[C@@H]2C[C@@H]1C[C@H]1NCCc2cc(OC)c(OC)cc21 [Emetine dihydrochloride hydrate] yielded phenotypic distance of 1.31

CC(NCCC(c1ccccc1)c1ccccc1)c1ccccc1 (stereo unspecified) [Fendiline hydrochloride] yielded phenotypic distance of 1.49

CC(C)C[C@H]1C(=O)N2CCC[C@H]2[C@]2(O)O[C@](NC(=O)[C@@H]3C=C4c5cccc6[nH]c(Br)c(c56)C[C@H]4N(C)C3)(C(C)C)C(=O)N12 [Bromocryptine mesylate] yielded phenotypic distance of 0.797
